Molecular target: human MCHR1 (Homo sapiens)
Construct: host or cells: CHO
Sequence (Q99705 whole entry): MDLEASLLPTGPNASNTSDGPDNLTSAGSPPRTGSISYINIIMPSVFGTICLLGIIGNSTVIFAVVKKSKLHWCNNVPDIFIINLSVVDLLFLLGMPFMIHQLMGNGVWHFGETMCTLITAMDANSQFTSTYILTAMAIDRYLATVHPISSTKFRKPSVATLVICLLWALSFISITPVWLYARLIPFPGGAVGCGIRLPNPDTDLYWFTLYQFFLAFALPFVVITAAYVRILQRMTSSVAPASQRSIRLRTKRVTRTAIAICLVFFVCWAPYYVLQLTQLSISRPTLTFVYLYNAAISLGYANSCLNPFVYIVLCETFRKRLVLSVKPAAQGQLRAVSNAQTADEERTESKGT
Assay: Cyclic AMP assay (MCHR-1 functional antagonism)
Type: cell-based
Settings: CHO cells stably expressing human MCHR1; cAMP accumulation with 25 uM forskolin and 0.2 nM MCH, 90 min; Ki from IC50 by Cheng-Prusoff; read-out: MCHR-1 functional Ki
pKi: −log10 of the molar value.
attribute_measured: pKi

Use these answered entries as a reference point.
CC(=O)N1CCN(c2ccc(-n3ccc(OCc4ccccc4)cc3=O)cn2)CC1 [Example 1]
7.32
CN[C@H]1CCN(c2ccc(-n3ccc(COc4ccccc4)cc3=O)cn2)C1 [Example 122]
6.96
COC(=O)N(C)[C@@H]1CCN(c2ccc(-n3ccc(OCc4ccc(F)cc4)cc3=O)cn2)C1 [Example 179]
7.72
O=c1cc(OCc2ccccc2)ccn1-c1ccc(N2CC[C@@H](O)C2)nc1 [Example 11]
7.01
O=c1cc(OCc2ccccc2)ccn1-c1ccc(N2CC(N3CCC3)C2)nc1 [Example 79]
6.38
CCO[C@@H]1CCN(c2ccc(-n3ccc(OCc4ccccc4)cc3=O)cn2)C1 [Example 39]
7.38
O=c1cc(OCc2cccc(Cl)c2)ccn1-c1ccc(N2CC[C@@H](O)C2)nc1 [Example 144]
7.16
NC1CCN(c2ccc(-n3ccc(OCc4ccccc4)cc3=O)cn2)CC1 [Example 214]
6.97

1: CN[C@H]1CCN(c2ccc(-n3ccc(OCc4ccc(F)c(F)c4)cc3=O)cn2)C1 [Example 150]
2: O=c1cc(OCc2ccccc2)ccn1-c1ccc(N2CCC(N3CCC3)C2)nc1 (stereo not shown) [Example 61]
Please let me know which one, 1 or 2 , has a lower measured pKi value. Your answer should be the label of the entry you select.
2
(2: 7.73, 1: 8.46)

P: COCC1CCCN(c2ccc(-n3ccc(OCc4ccccc4)cc3=O)cn2)CC1 (stereo not shown) [Example 233]
Q: O=c1cc(OCc2ccc(F)cc2)ccn1-c1ccc(N2CC[C@H](O)C2)nc1 [Example 114]
Quick check, higher pKi between P and Q ? Your answer should be the label of the entry you select.
P
(P: 7.75, Q: 7.32)

P: O=c1cc(OCc2ccc(F)cc2)ccn1-c1ccc(N2CCC[C@@H](O)C2)nc1 [Example 87]
Q: COC(=O)N1CCN(c2ccc(-n3ccc(OCc4ccccc4)cc3=O)cn2)CC1 [Example 48]
R: CN(C)C(=O)C1CCN(c2ccc(-n3ccc(OCc4ccccc4)cc3=O)cn2)C1 (racemic) [Example 25]
S: O=c1cc(OCc2ccccc2)ccn1-c1ccc(N2CC[C@@H](O)C2)nn1 [Example 157]
T: COC(=O)N(C)[C@@H]1CCN(c2ccc(-n3ccc(OCc4ccccc4)cc3=O)cn2)C1 [Example 187]
Please rank these compounds by pKi in descending order. As an answer, provide the labels arranged in the order called for.
T, R, P, Q, S
(T: 7.62, R: 7.09, P: 6.72, Q: 6.15, S: 5.50)

A: COC(=O)N[C@@H]1CCN(c2ccc(-n3ccc(OCc4ccccc4)cc3=O)cn2)C1 [Example 188]
B: O=c1cc(OCc2ccccc2)ccn1-c1ccc(N2CCCC2)nc1 [Example 34]
Quick check, higher pKi between A and B ? Your answer should be the label of the entry you select.
B
